Source listed as ChEMBL document CHEMBL4368900.

- tested on: Bifunctional UDP-N-acetylglucosamine 2-epimerase/N-acetylmannosamine kinase (Homo sapiens, UniProt Q9Y223)
- Sequence (Q9Y223 whole entry): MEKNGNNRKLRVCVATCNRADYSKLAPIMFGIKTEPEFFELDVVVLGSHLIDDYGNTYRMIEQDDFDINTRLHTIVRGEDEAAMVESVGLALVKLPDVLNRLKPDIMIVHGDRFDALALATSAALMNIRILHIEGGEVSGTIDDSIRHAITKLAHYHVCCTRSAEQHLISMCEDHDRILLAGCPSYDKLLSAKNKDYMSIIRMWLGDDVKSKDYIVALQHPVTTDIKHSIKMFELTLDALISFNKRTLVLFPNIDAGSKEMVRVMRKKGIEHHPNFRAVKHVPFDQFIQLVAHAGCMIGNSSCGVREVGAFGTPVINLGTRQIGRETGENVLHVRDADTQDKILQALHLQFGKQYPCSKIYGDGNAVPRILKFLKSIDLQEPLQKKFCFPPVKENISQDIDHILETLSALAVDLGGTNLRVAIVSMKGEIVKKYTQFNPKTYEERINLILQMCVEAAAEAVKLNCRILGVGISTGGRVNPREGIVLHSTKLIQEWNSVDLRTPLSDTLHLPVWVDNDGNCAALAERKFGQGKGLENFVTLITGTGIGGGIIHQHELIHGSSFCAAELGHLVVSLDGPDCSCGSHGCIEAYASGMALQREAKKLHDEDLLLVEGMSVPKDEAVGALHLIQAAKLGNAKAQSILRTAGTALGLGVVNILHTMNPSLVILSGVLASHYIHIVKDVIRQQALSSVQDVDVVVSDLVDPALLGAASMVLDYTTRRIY
- test summary: Binding affinity to His-tagged human MNK expressed in Escherichia coli BL21(DE3) in presence of ATP by […] spectroscopy analysis
reported property: Kd (µM)

P. O=C(O)c1cccc(C(=O)N2CCCC2)n1
Q. O=C(O)c1cc(C(F)(F)F)ccn1
Input line: Which value of Kd is numerically greater: that of P or that of Q ? Reply with the label of the item you choose.
Output line: Q

====

- tested on: Albumin (Homo sapiens, UniProt P02768)
- Sequence (P02768 whole entry): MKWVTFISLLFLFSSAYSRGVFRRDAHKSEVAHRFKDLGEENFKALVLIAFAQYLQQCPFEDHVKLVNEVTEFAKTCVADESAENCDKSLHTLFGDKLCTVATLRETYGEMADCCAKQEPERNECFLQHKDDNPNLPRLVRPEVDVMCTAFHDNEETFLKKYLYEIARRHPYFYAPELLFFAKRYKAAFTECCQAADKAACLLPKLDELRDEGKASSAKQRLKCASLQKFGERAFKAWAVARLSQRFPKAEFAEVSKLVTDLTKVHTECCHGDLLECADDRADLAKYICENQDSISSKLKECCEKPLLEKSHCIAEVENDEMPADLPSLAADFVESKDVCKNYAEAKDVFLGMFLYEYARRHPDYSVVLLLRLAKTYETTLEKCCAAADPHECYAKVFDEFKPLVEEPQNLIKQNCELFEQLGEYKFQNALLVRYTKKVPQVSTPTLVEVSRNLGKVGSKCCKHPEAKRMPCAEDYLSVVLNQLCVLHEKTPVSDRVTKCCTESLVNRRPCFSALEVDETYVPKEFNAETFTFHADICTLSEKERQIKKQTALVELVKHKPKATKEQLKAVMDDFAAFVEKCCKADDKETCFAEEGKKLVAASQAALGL
- test summary: Binding affinity to human serum albumin by NMR spectroscopy
reported property: Kd (µM)
Could you give me the number in µM? Just the number is fine.

Let me check: O=C(O)c1cccc(F)c1O , system Albumin (Homo sapiens, UniProt P02768), measured Kd is 41.8
